Target Or System: LigT (Escherichia coli, UniProt Z9E1N8ZL79)
Construct: N-terminal His6 tag with TEV site, tag cut with TEV protease; expressed in E. coli BL21(DE3); 20 kDa; monomer in solution
Method: isothermal titration calorimetry; co-crystal structure
Format: binding
Measurement Context: 10 mM HEPES pH 7.5, 0.2 M NaCl, 0.1 mM TCEP, 25 °C; active site; read-out: dissociation constant
Readout: Kd (µM)
All answers are understood in µM, so give the number only.

Prompt line: // Kd lookup, key: `Nc1ncnc2c1ncn2[C@@H]1O[C@H](CO)[C@@H](OP(=O)(O)O)[C@H]1O`
Response line: 180

====

Target Or System: LigT (Escherichia coli)
Construct: N-terminal His6 tag with TEV site, tag cut with TEV protease; expressed in E. coli BL21(DE3); 20 kDa; monomer in solution
Method: isothermal titration calorimetry; co-crystal structure
Assay type: binding
Measurement Context: 10 mM HEPES pH 7.5, 0.2 M NaCl, 0.1 mM TCEP, 25 °C; active site, product analogue; read-out: dissociation constant
Readout: pKd
Give only the number. pKd is defined as minus log10 of concentration in molar units.

Prompt line: // pKd lookup, key: `NC(=O)c1ccc[n+]([C@@H]2O[C@H](COP(=O)(O)OP(=O)(O)OC[C@H]3O[C@@H](n4cnc5c(N)ncnc54)[C@H](OP(=O)(O)O)[C@@H]3O)[C@@H](O)[C@H]2O)c1`
Response line: 4.40
